The origin of these recorded values is patent US8461328B2.

Test target: JAK2 (Homo sapiens, UniProt O60674)
Construct: made in house; host or cells: SF9 insect cells (baculovirus)
Sequence (O60674 812-1132): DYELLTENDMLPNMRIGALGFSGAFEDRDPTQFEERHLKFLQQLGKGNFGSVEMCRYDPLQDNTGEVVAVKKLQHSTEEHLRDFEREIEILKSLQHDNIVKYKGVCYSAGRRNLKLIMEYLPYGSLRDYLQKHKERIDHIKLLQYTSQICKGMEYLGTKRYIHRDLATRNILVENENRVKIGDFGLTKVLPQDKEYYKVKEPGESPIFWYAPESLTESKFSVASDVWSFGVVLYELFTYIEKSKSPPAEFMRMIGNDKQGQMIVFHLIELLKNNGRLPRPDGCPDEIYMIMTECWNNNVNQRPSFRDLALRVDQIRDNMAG
Protocol text: JAK2 inhibition (Table 4)
Assay type: biochemical
Condition summary: read-out: JAK2 Ki
// pKi lookup, one value per entry
Field pKi (float): negative decimal logarithm of the concentration in molar.

>>> obs_value("CC1CC(n2cnc3cnc4[nH]ccc4c32)CCN1 (racemic) [Example 229]")
6.85
>>> obs_value("CC(C)(O)c1nc2cnc3[nH]ccc3c2n1C1CCN(Cc2ccccc2)CC1")
6.62
>>> obs_value("O[C@H]1CC[C@@H](n2cnc3cnc4[nH]ccc4c32)C1")
7.62
>>> obs_value("Cc1nc2ncccn2c1CN1CCC(n2c([C@@H](C)O)nc3cnc4[nH]ccc4c32)CC1")
6.86
>>> obs_value("N#CCC(=O)N1CCC[C@@H](n2nnc3cnc4[nH]ccc4c32)C1")
8.43
>>> obs_value("CC(C)(C)OC(=O)NC1CCCC(n2cnc3cnc4[nH]ccc4c32)C1 (single isomer, unassigned) [Example 475]")
6.96
>>> obs_value("CC(=O)N(C)CCc1nc2cnc3[nH]ccc3c2n1C1CCCCC1")
7.31
>>> obs_value("NC1CCC(n2cnc3cnc4[nH]ccc4c32)C1 (racemic)")
6.75
>>> obs_value("OC1CCCC(n2cnc3cnc4[nH]ccc4c32)C1 (single isomer, unassigned) [Example 562]")
8.12
>>> obs_value("Cc1ncc(CN2CCC(n3c([C@@H](C)O)nc4cnc5[nH]ccc5c43)CC2)n1C")
5.76

Entry under test: CC(C)(C)OC(=O)NC1CCCC(n2cnc3cnc4[nH]ccc4c32)C1 (single isomer, unassigned) [Example 474] . Its pKi was 8.36

Entry under test: "FC(F)c1nc2cnc3[nH]ccc3c2n1C1CCNCC1" . Its pKi was 6.64

Entry under test: "Cc1nc2cnc3[nH]ccc3c2n1[C@@H]1C[C@H]2CC[C@@H](C1)N2Cc1ccccc1" . Its pKi was 7.90

Entry under test: "FC(F)(F)c1nc2cnc3[nH]ccc3c2n1C1CCN(Cc2ccccc2)CC1" . Its pKi was 7.85

Entry under test: OC(c1nc2cnc3[nH]ccc3c2n1C1CCCCC1)C1CCOCC1 (racemic) . Its pKi was 6.54

Entry under test: "CC(C)(C#N)C(=O)N1CCC(n2cnc3cnc4[nH]ccc4c32)CC1" . Its pKi was 7.44

Entry under test: "O=C([C@@H]1CCCN1)N1CCC(n2cnc3cnc4[nH]ccc4c32)CC1" . Its pKi was 6.44

Entry under test: O=C(CCC(F)(F)F)NC1CCC(n2cnc3cnc4[nH]ccc4c32)C1 (racemic) . Its pKi was 8.07

Entry under test: "N#CCCN1CCC(n2c(CF)nc3cnc4[nH]ccc4c32)CC1" . Its pKi was 8.84

Entry under test: CN1CCCCCC1C(=O)N1CCC(n2cnc3cnc4[nH]ccc4c32)CC1 (racemic) . Its pKi was 6.34
